Sourced from PubChem BioAssay (NCI)

Experiment: NCI Yeast Anticancer Drug Screen. Data for the rad50 strain (AID 155);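 also: 0% = growth of vehicle-only cultures of the same strain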
Conditions: S. cerevisiae rad50 strain growth inhibition; at 50.0 µM
The panel holds about 79,000 compounds, 15% with a hit somewhere; the sample as a whole holds those more often. Active and inactive are the calls of the source. Rule as the data show it: active = growth inhibition above about 70%; inactive = the rest.
I would appreciate it if you answered using one of these outcomes: active, inactive

Completed entries (count: 6):
Compound: CCC(C(=O)c1cccs1)C(O)(C(F)(F)F)C(F)(F)F (centres undefined)
Label Class: inactive

Compound: CCOc1cc(/C=C2/C=C(c3ccc(OC)cc3)OC2=O)ccc1O
Label Class: inactive

Compound: Cc1nnc(Nc2ccc(Cl)c(Cl)c2)s1
Label Class: inactive

Compound: COCCCOC(=O)COc1ccccc1
Label Class: inactive

Compound: CN(/N=C/c1cccs1)c1ccc([N+](=O)[O-])cc1[N+](=O)[O-]
Label Class: inactive

Compound: Cc1nc(-n2nc(-c3ccccc3)cc2-c2ccccc2)sc1C(/C=C/c1ccc([N+](=O)[O-])cc1)=N/NC(N)=S
Label Class: inactive

// return assay outcome for OC1CNC(=S)NC1 inactive

// return assay outcome for Cc1ccc(C(=O)O)c(=O)[nH]1 inactive

// return assay outcome for CC(C)CCOC(=O)C(O)C(O)C(=O)OCCC(C)C (centres undefined) inactive

// return assay outcome for CC1=NC(=Cc2ccc(O)cc2)C(=O)N1n1c(-c2ccccc2)nc2ccccc2c1=O inactive

---

growth inhibition values, listed per item
Test: NCI Yeast Anticancer Drug Screen. Data for the sgs1 mgt1 strain (AID 161);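 also: 0% = growth of cultures given vehicle only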
Conditions: S. cerevisiae sgs1 mgt1 strain, at 50.0 µM, stronger effect = higher value
About 79,000 compounds went through this panel and 15% of them were active in at least one assay; those are over-represented in the sample as a whole. Active and inactive are the calls of the source. Cut-off read from the data, not from the text of the source: active = growth inhibition above about 70%; inactive = the rest.

Compound: Cc1ccc(C)o1
Reported Measurement: -8.65% (inactive)

Compound: C[N+](C)(C)CC(=O)N/N=C(/CC(=O)CC(C1=C(O)c2ccccc2OC1)c1ccccc1)C(=O)Nc1cccc(Cl)c1 (stereo not given)
Reported Measurement: 27.7% (inactive)

Compound: O=C1/C(=C/c2cccc3ccccc23)Cc2ccccc21
Reported Measurement: -11.6% (inactive)

Compound: Oc1cccc(Oc2cccc(Oc3cccc(O)c3)c2)c1
Reported Measurement: -4.3% (inactive)

Compound: CCC(CC)=C(c1ccc(C)cc1)c1ccc(C)cc1
Reported Measurement: -1.9% (inactive)

Form: compound = CC(=O)NC(CCCc1ccccc1)C(=O)O (stereo not given) ; growth inhibition = -17.1% (inactive)

Form: compound = CCO/C(=C/[S+](C)C)c1ccccc1 ; growth inhibition = -19.9% (inactive)

Form: compound = CC1(C)Oc2ccc3ccccc3c2C(c2ccc(O)cc2)=C1c1ccccc1 ; growth inhibition = 5.2% (inactive)

---

Experiment: NCI Yeast Anticancer Drug Screen. Data for the cln2 rad14 strain (AID 165);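 also: 0% = growth equal to vehicle treated cultures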
Details: S. cerevisiae cln2 rad14 strain, at 50.0 µM, stronger effect = higher value
The panel holds about 79,000 compounds, 15% with a hit somewhere; the sample as a whole holds those more often.
growth inhibition values, listed per item
Numeric only. Scale: %

Molecule: Cn1c(=O)c2c(ncn2CCSS(=O)(=O)O)n(C)c1=O
growth inhibition, %: -11.9

Molecule: Cc1ccc(CCC=O)cc1
growth inhibition, %: -37.9

Molecule: CC(C)c1nc2c([nH]1)c(=O)n(C)c(=O)n2C
growth inhibition, %: 18

Form: molecule = CCN(CC)CC(C)=O ; growth inhibition = 14.8

Form: molecule = COC(=O)c1c(-c2ccccc2)cc2c3cc(-c4ccccc4)c(C(=O)OC)n3c3ccccc3n12 ; growth inhibition = -23.9

Form: molecule = O=C(NCCCOc1ccc(Cl)c(Cl)c1)NCCc1ccc(Cl)c(Cl)c1 ; growth inhibition = -8.9

Form: molecule = O=C(OCC1OC(OCc2ccccc2)C(OC(=O)c2ccccc2)C1OC(=O)c1ccccc1)c1ccccc1 (stereo not drawn) ; growth inhibition = -3

Form: molecule = Brc1cccc(Br)n1 ; growth inhibition = 7.4

Form: molecule = Cc1c(C(=O)O)[nH]c(=O)[nH]c1=O ; growth inhibition = 11.5

Form: molecule = CCCCN(CC)NC(=S)Nc1ccccc1 ; growth inhibition = -18.4

Form: molecule = CC[N+](CC)(CC)Cc1cc2ccccc2n1C(=O)OC ; growth inhibition = -1.4

Form: molecule = CC(C)(C)NC(=O)NCc1ccccc1Cl ; growth inhibition = -52.5

Form: molecule = CCC(=O)OC1(C(=O)OC)CCN(C)CC1 ; growth inhibition = 15.2

Form: molecule = CC(=O)N(CN1C(=O)CCC1C(=O)O)c1ccccc1Cl (stereo not drawn) ; growth inhibition = -4.35

Form: molecule = COc1cc(Cl)c(CC(=O)c2c[nH]c3ccccc23)cc1OC ; growth inhibition = -31.7

Form: molecule = CC(=O)c1c2c(cc3c1CC1(C3)Cc3cc4c(c(C(C)=O)c3C1)CCC4)CCC2 ; growth inhibition = -5.45

Form: molecule = C=CC[N+]12CC=C3COC(=O)C(C)(O)C(C)(O)C(C)C(=O)OC(CC1)C32 (stereo not drawn) ; growth inhibition = -25.9

Form: molecule = CCCCCCCCCC(O)CCCC(O)C(O)CCCCCCC(=O)O (stereo not drawn) ; growth inhibition = 17.5

Form: molecule = COC1/C=C/OC2(C)Oc3c(C)c(O)c4c(c3C2=O)C(N)=C(Nc2ccccc2)C(=NC(=O)C(C)=CC=CC(C)C(O)C(C)C(O)C(C)C(OC(C)=O)C1C)C4=O (stereo not drawn) ; growth inhibition = 46.5

Form: molecule = CCN(CC)c1ccc(N=C2C=CC(=O)C(NC(C)=O)=C2)c(C)c1 ; growth inhibition = -8.15

Form: molecule = C=CCNC(=O)N(CCC)CCCC(NC(C)=O)C(=O)NCc1ccccc1 (stereo not drawn) ; growth inhibition = 10.4

Form: molecule = CN(C)CCN=C1Nc2ccccc2C(=S)N2CSCC12 (stereo not drawn) ; growth inhibition = -2.05

Form: molecule = CS(=O)(=O)C(c1nc2n(c1O)C(=N)N=N2)c1nc2n(c1O)C(=N)N=N2 (stereo not drawn) ; growth inhibition = -17.1
